Tested on: Replicase polyprotein 1ab (Severe acute respiratory syndrome coronavirus 2, UniProt P0DTD1)
Test protocol: Inhibition of N7-MTase activity of SARS-CoV-2 N-terminus hexahistidine tag nsp14 expressed in Escherichia coli C2566 using [3H]SAM as substrate incubated for 30 mins in presence of mGpppAC4 synthetic RNA by radioactive filter binding assay
Each entry below carries its recorded pIC50.
pIC50 (log units): -log10 of the concentration in mol/L.

Structure smiles string: N#Cc1cc(S(=O)(=O)NC[C@H]2O[C@@H](n3cnc4c(N)ncnc43)[C@H](O)[C@@H]2O)ccc1F
pIC50: 6.05
//
Structure smiles string: COc1ccc(S(=O)(=O)N(CCCCNc2cccc3ccccc23)C[C@H]2O[C@@H](n3cnc4c(N)ncnc43)[C@H](O)[C@@H]2O)cc1[N+](=O)[O-]
pIC50: 7.52
//
Structure smiles string: CCN(C[C@H]1O[C@@H](n2cnc3c(N)ncnc32)[C@H](O)[C@@H]1O)S(=O)(=O)c1ccc(C)c([N+](=O)[O-])c1
pIC50: 7.42

Which pIC50 value is on record for `N#Cc1cc(S(=O)(=O)NC[C@H]2O[C@@H](n3cnc4c(N)ncnc43)[C@H](O)[C@@H]2O)ccc1Cl` ?
6.00

What do you get for `N#Cc1cccc(S(=O)(=O)NC[C@H]2O[C@@H](n3cnc4c(N)ncnc43)[C@H](O)[C@@H]2O)c1` ?
5.28

What do you get for `CCN(C[C@H]1O[C@@H](n2cnc3c(N)ncnc32)[C@H](O)[C@@H]1O)S(=O)(=O)c1ccc(C(F)(F)F)cc1[N+](=O)[O-]` ?
5.30

What do you get for `Nc1ncnc2c1ncn2[C@@H]1O[C@H](CNS(=O)(=O)c2ccc(C(F)(F)F)cc2[N+](=O)[O-])[C@@H](O)[C@H]1O` ?
5.46

What do you get for `COc1ccc(S(=O)(=O)NC[C@H]2O[C@@H](n3cnc4c(N)ncnc43)[C@H](O)[C@@H]2O)cc1[N+](=O)[O-]` ?
6.84

What do you get for `CCN(C[C@H]1O[C@@H](n2cnc3c(N)ncnc32)[C@H](O)[C@@H]1O)S(=O)(=O)c1ccc(Cl)c(Cl)c1` ?
7.00

###

Tested on: Replicase polyprotein 1ab (Severe acute respiratory syndrome coronavirus 2) (UniProt P0DTD1)
Test protocol: Inhibition of N7-MTase activity of SARS-CoV-2 N-terminus hexahistidine tag nsp14 expressed in Escherichia coli C2566 at 5 uM using [3H]SAM as substrate incubated for 30 mins in presence of mGpppAC4 synthetic RNA by filter binding assay relative to control
Measured quantity: inhibition (%)
Reply with just the number (in %).

# example entries with known answers
Structure smiles string: Cc1ccc(S(=O)(=O)NC[C@H]2O[C@@H](n3cnc4c(N)ncnc43)[C@H](O)[C@@H]2O)cc1[N+](=O)[O-]
inhibition, %: 100
--
Structure smiles string: Nc1ncnc2c1ncn2[C@@H]1O[C@H](CNS(=O)(=O)c2ccc(F)c([N+](=O)[O-])c2)[C@@H](O)[C@H]1O
inhibition, %: 87
--
Structure smiles string: N#Cc1cc(S(=O)(=O)NC[C@H]2O[C@@H](n3cnc4c(N)ncnc43)[C@H](O)[C@@H]2O)ccc1F
inhibition, %: 90

Which inhibition value is on record for `Nc1ncnc2c1ncn2[C@@H]1O[C@H](CNS(=O)(=O)c2cccc([N+](=O)[O-])c2)[C@@H](O)[C@H]1O` ?
80

These entries and their values trace back to ChEMBL document CHEMBL5154878.
